Numbers sourced from PubChem BioAssay (NCI).

Quick reference for growth among some compounds
tested on: K-562 leukemia; experiment: NCI-60 one-dose screen, 48 h (100 = growth as untreated, 0 = no growth, -100 = all killed); settings: 10 µM unless noted
This is part of a sample that, as a whole, favours compounds with a hit. Of some 83,000 tested, about 20% had one in any assay.
Response body: numeric value in %, unit text excluded.

Below are worked cases with known answers.
INSERT INTO measurements (compound, study_target, result) VALUES
  ('CC(C)Nc1cc(-c2c[nH]c(C(=O)N[C@H](CO)c3cccc(Cl)c3)c2)c(Cl)cn1', 'K-562 leukemia', 19.8),
  ('COc1ccc(Nc2ncccc2NC(=O)c2cn(Cc3cccc(Oc4ccccc4)c3)nn2)cc1', 'K-562 leukemia', 73.8),
  ('CC(C)=CCc1cc2c(cc1O)C1=C(C(=O)C3=C(C1=O)S(=O)(=O)CCN3)C(C=C(C)C)O2 (stereo not given)', 'K-562 leukemia', 0.919),
  ('CC(N)C(Cc1ccc(Cl)cc1)c1ccc(Cl)cc1 (stereo not given)', 'K-562 leukemia', 0.46),
  ('CCCCCc1ccc(C)cc1OC(=O)CCl', 'K-562 leukemia', 98.8);

(Q) Please indicate growth recorded for COc1cc2ncnc(Nc3ccc(F)c(Cl)c3)c2cc1NC(=O)/C=C/CN1CCCCC1
(A) -28.5

(Q) Please indicate growth recorded for Cn1c(Nc2ccc(C(F)(F)F)cc2)nc2cc(Oc3ccnc(-c4ncc(C(F)(F)F)[nH]4)c3)ccc21
(A) 61.8

(Q) Please indicate growth recorded for CC/C=C\C[C@H]1C/C=C2/C(=O)C=C[C@@H]2C/C=C\CCCC(=O)O1
(A) 1.56

----------
system: PC-3 prostate; assay: NCI-60 one-dose screen, 48 h; conditions: 10 µM unless noted
About 83,000 compounds went through this panel and 20% of them were active in at least one assay; those are over-represented in the sample as a whole. Activity calls are given as the source filed them. The calls were made as follows: active = growth percent below 10; inactive = the rest.
Entry note: the call must match one of t for active, f for inactive

Recorded results for 4 compounds are shown here.
INSERT INTO results (compound, group) VALUES
  ('Cc1cn(-c2cc(NC(=O)c3ccc(C)c(Nc4nccc(-c5cnccn5)n4)c3)cc(C(F)(F)F)c2)cn1', 'f'),
  ('CN(C)CCn1c(=O)c2c3cc4c(cc3n(CCN(C)C)c2c2ccc(Cl)cc21)OCO4', 'f'),
  ('Cc1ccc(NC(=O)c2ccc(CN3CCN(C)CC3)cc2)cc1Nc1nc(-c2cccnc2)cs1', 'f'),
  ('C=CCC(=O)N[C@H](/C=C/C(=O)O)Cc1ccc(-c2cc(Cl)cc(Cl)c2)cc1', 'f');

Lab note: next compound to report on.
(Q) Lab log entry: CN1CCN(c2ccc(C(=O)Nc3n[nH]c4ccc(Cc5cc(F)cc(F)c5)cc34)c(NC3CCOCC3)c2)CC1 — outcome as called in the assay?
(A) t

----------
system: UACC-257 melanoma; test: NCI-60 one-dose screen, 48 h (100 = growth as untreated, 0 = no growth, -100 = all killed); details: 10 µM unless noted
This is part of a sample that, as a whole, favours compounds with a hit. Of some 83,000 tested, about 20% had one in any assay.
Quick reference for growth among some compounds
Response body: numeric value in %, unit text excluded.

INSERT INTO assay_data (compound, attribute_measured, unit_of_measure, result) VALUES
  ('Cc1ccc(-[n+]2c3cc(N)c(C)cc3nc3cc(C)c(Nc4ccccc4)cc32)cc1', 'growth', '%', -48.8);

(Q) Please indicate growth recorded for CN(C)CCn1c(=O)c2c3cc4c(cc3n(CCN(C)C)c2c2ccc(Cl)cc21)OCO4
(A) 71.6

(Q) Please indicate growth recorded for CC(=O)OC(C(=O)c1ccccc1)c1ccccc1 (stereo not given)
(A) 107

(Q) Please indicate growth recorded for COc1ccc(-c2cc3c(C)nc(N)nc3n(C3CCC(OCCO)CC3)c2=O)cn1 (stereo not given)
(A) -35.9

(Q) Please indicate growth recorded for CCOc1ccc(N=C(C)Nc2ccc(OCC)cc2)cc1
(A) 104

----------
test system: SK-MEL-2 melanoma; experiment: NCI-60 one-dose screen, 48 h (100 = growth as untreated, 0 = no growth, -100 = all killed); details: 10 µM
About 83,000 compounds went through this panel and 20% of them were active in at least one assay; those are over-represented in the sample as a whole.
Quick reference for growth among some molecules
Response body: numeric value in %, unit text excluded.

Below are worked cases with known answers.
INSERT INTO assay_data (molecule, unit_of_measure, result) VALUES
  ('NC(=O)N1N=C(c2ccc(Cl)cc2)CC1c1cn(-c2ccccc2)nc1-c1ccc(Cl)cc1 (centres undefined)', '%', 74.3),
  ('Cc1cc(N2CCCC2)nc(N(CCCNc2ccnc3cc(Cl)ccc23)Cc2ccc3c(c2)OCO3)n1', '%', -50.7);

(Q) Please indicate growth recorded for COC(=O)C1=C(C(=O)OC)C23C=C(C)C1C2=C(C)C1(CC1)[C@@](C)(O)C3=O (some centres undefined)
(A) -54.6

(Q) Please indicate growth recorded for CC(C)[C@@H]1CC[C@]2(CO2)[C@@H]2C(=O)OCC(C(=O)O)=C[C@H]21
(A) -65.8

(Q) Please indicate growth recorded for CC(C)(C)CC(C)(C)Nc1c(-c2c(O)c3ccccc3oc2=O)nc2c(Cl)cc(C(F)(F)F)cn12
(A) 102

----------
tested on: TK-10 renal; experiment: NCI-60 one-dose screen, 48 h; settings: 10 µM unless noted
Compounds without any hit were thinned out: in the full panel of roughly 83,000, 20% have a hit. Active and inactive are the calls of the source. The calls were made as follows: active = growth percent below 10; inactive = the rest.
Entry note: the call must match one of class 1 (active), class 0 (inactive)

INSERT INTO measurements (sample_smiles, group) VALUES
  ('NC1=Nc2ccccc2N(O)N1', 'class 0'),
  ('CCN1CCN(c2cc(C)nc(N(CCCNc3ccnc4cc(Cl)ccc34)Cc3cccs3)n2)CC1', 'class 1'),
  ('Cc1cc(Oc2ccccc2)ccc1Nc1ncnc2ccc(-c3cnc(Cl)c(NS(C)(=O)=O)c3)cc12', 'class 1'),
  ('COCc1c(-c2ccc(NC(=O)Nc3cc(C(F)(F)F)ccc3F)c(F)c2)c2c(N)ncnn2c1CN1CCOCC1', 'class 1'),
  ('CN1CCN(CCOc2cc(OC3CCOCC3)c3c(Nc4c(Cl)ccc5c4OCO5)ncnc3c2)CC1', 'class 1'),
  ('COc1cc(-c2nc(C(=O)NCC(=O)O)nn2-c2ccc(Cl)cc2)cc(OC)c1OC', 'class 0'),
  ('O=S1(=O)OC(c2cc(Cl)c(O)c(Br)c2)(c2cc(Cl)c(O)c(Br)c2)c2ccccc21', 'class 0'),
  ('O=C(O)c1ccc(Nc2ncc3c(n2)-c2ccc(Cl)cc2C(c2c(F)cccc2F)=NC3)cc1', 'class 0');

(Q) Lab log entry: CN1CCN(c2ccc(C(=O)Nc3n[nH]c4ccc(Cc5cc(F)cc(F)c5)cc34)c(NC3CCOCC3)c2)CC1 — outcome as called in the assay?
(A) class 1

(Q) Lab log entry: N#Cc1c(NC(=O)c2ccco2)[n+]([O-])c2cc(F)c(F)cc2[n+]1[O-] — outcome as called in the assay?
(A) class 0

----------
Quick reference for growth among some compounds
test system: LOX IMVI melanoma; assay: NCI-60 one-dose screen, 48 h (100 = growth as untreated, 0 = no growth, -100 = all killed); conditions: 10 µM unless noted
About 83,000 compounds went through this panel and 20% of them were active in at least one assay; those are over-represented in the sample as a whole. Calls of active or inactive are those of the source. Rule for the calls: active = growth percent below 10; inactive = the rest.

INSERT INTO measurements (compound, result) VALUES
  ('O=S1(=O)OC(c2cc(Cl)c(O)c(Br)c2)(c2cc(Cl)c(O)c(Br)c2)c2ccccc21', '96.5% (inactive)'),
  ('COc1cc(NC2CCC(=O)N2c2ccc(Cl)cc2Cl)cc(OC)c1OC (stereo not drawn)', '96.6% (inactive)');

Let us examine a further case.
(Q) Please indicate growth recorded for CCc1nc2cc(F)c(/C=C/C(=O)NO)cc2c(=O)n1CCc1ccccc1
(A) -33.9% (active)

----------
test system: SF-268 CNS; assay: NCI-60 one-dose screen, 48 h (100 = growth as untreated, 0 = no growth, -100 = all killed); conditions: 10 µM unless noted
About 83,000 compounds went through this panel and 20% of them were active in at least one assay; those are over-represented in the sample as a whole.
attribute_measured: growth (%)
Response body: numeric value in %, unit text excluded.

INSERT INTO measurements (sample_smiles, attribute_measured, unit_of_measure, result) VALUES
  ('COC(=O)CCCNc1c(-c2c(O)c(O)cc3c(O)c(-c4c(C)cc5c(-c6nc7ccccn7c6NCCCC(=O)OC)c(O)c(O)cc5c4O)c(C)cc23)nc2ccccn12', 'growth', '%', 25.3),
  ('CNC(=O)c1cc(Oc2ccc(NC(=O)Nc3cc(C(C)(C)C)nn3-c3ccc4ncccc4c3)c(F)c2)ccn1', 'growth', '%', -19.8),
  ('COc1cc2nccc(Oc3ccc(NC(=O)C4(C(=O)Nc5ccc(F)cc5)CC4)cc3)c2cc1OC', 'growth', '%', 34);

(Q) Please indicate growth recorded for CN1CCN(c2nc(C3=C(c4c[nH]c5ccccc45)C(=O)NC3=O)c3ccccc3n2)CC1
(A) 95.1

(Q) Please indicate growth recorded for COc1cc2c(cc1O)c(=O)n(CCN(C)C)c1c3cc4c(cc3ncc21)OCO4
(A) 3.41

(Q) Please indicate growth recorded for CN1[C@@H]2CC[C@H]1/C(=C\c1ccccc1)C1=C2[C@@H](c2ccccc2)C(C#N)=C(N)O1
(A) 77

(Q) Please indicate growth recorded for C=C1[C@@H](O)C[C@H]2C(C)(C)C[C@H](Cl)C[C@]2(C)[C@H]1C[C@H](O)[C@H]1CC(=O)NC1=O
(A) -20.8

(Q) Please indicate growth recorded for Cc1cc(N(CCNc2ccnc3cc(Cl)ccc23)Cc2ccc3c(c2)OCO3)nc(N2CCCC2)n1
(A) 22.8

(Q) Please indicate growth recorded for COc1ccc2c(c1OC)C(=O)O[C@@H]2[C@H]1c2c(c(C#CC#Cc3ccc(F)c(F)c3)c3c(c2OC)OCO3)CCN1C
(A) 95.9

(Q) Please indicate growth recorded for O=C(O)c1ccc(Nc2ncc3c(n2)-c2ccc(Cl)cc2C(c2c(F)cccc2F)=NC3)cc1
(A) 52.6
